molecular target: dopamine D2 receptor V208L (Leucine 208) (Homo sapiens, UniProt P14416, V208L); construct: expressed in transfected cells; host or cells: NIH-3T3; test: R-SAT functional assay, dopamine D2 receptor V208L; format: cell-based
measured_quantity: EC50 (nM)
Your answer is read as nM, so omit the unit and give the number.

- compound: "CN1C[C@H](C(=O)N[C@]2(C)O[C@@]3(O)[C@@H]4CCCN4C(=O)[C@H](Cc4ccccc4)N3C2=O)C[C@@H]2c3cccc4[nH]cc(c34)C[C@H]21 [Dihydroergotamine, dihydroergotamine]"
  system: "dopamine D2 receptor V208L (Leucine 208) (Homo sapiens, UniProt P14416, V208L)"
  unit_annotation: "nM"
  EC50: 0.0513

Query: Field request: EC50 | item: CC(C)C[C@H]1C(=O)N2CCC[C@H]2[C@]2(O)O[C@](NC(=O)[C@@H]3C=C4c5cccc6[nH]c(Br)c(c56)C[C@H]4N(C)C3)(C(C)C)C(=O)N12
Reply: 0.295

###

Recorded FOLD for the following compounds
biological target: serotonin 7 receptor L421P (Proline 421) (Homo sapiens, UniProt P34969, L421P); experiment: R-SAT functional assay, serotonin 7 receptor L421P; type: cell-based; conditions: shift in functional potency, Proline 421 vs Leucine 421; Table 20
Your answer is read as fold, so omit the unit and give the number.

Past entries and their recorded results:
- compound: "CN1CCN(CC/C=C2/c3ccccc3Sc3ccc(S(=O)(=O)N(C)C)cc32)CC1"
  FOLD [fold]: 3.2
- compound: "OCCN1CCN([C@@H]2C[C@@H](c3ccc(F)cc3)c3ccc(C(F)(F)F)cc32)CC1 (racemic)"
  FOLD [fold]: 27.0
- compound: "OCCN1CCN(CC/C=C2/c3ccccc3Sc3ccc(C(F)(F)F)cc32)CC1 [Cis-flupenthixol]"
  FOLD [fold]: 2.8

Turning now to a further record.
Query: Field request: FOLD | item: OCCN1CCN(CCCN2c3ccccc3Sc3ccc(C(F)(F)F)cc32)CC1
Reply: 5.8

###

target: serotonin 2B receptor R388W (Tryptophan 388) (Homo sapiens, UniProt P41595, R388W); assay: cell-based
measured_quantity: pEC50
To interpret pEC50, take it as minus log10 of a concentration measured in moles per litre.

Query: Field request: pEC50 | item: CN1C[C@H](C(=O)N[C@]2(C)O[C@@]3(O)[C@@H]4CCCN4C(=O)[C@H](Cc4ccccc4)N3C2=O)C[C@@H]2c3cccc4[nH]cc(c34)C[C@H]21 [Dihydroergotamine, dihydroergotamine]
Reply: 8.93

###

molecular target: histamine H2 receptor K231R (Arginine 231) (Homo sapiens, UniProt P25021, K231R); assay: R-SAT functional assay, histamine H2 receptor K231R
Sequence (P25021 whole entry K231R): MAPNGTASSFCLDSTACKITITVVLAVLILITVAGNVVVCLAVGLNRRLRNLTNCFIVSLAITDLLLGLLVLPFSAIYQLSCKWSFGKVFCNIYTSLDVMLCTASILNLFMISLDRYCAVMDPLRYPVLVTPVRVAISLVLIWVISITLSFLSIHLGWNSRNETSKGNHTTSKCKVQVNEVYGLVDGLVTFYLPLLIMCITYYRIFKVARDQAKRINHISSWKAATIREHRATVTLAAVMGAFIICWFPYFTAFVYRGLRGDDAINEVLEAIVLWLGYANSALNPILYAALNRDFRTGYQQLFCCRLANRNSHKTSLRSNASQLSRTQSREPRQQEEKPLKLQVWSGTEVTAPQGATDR
measured_quantity: EC50 (nM)
Your answer is read as nM, so omit the unit and give the number.

Query: Field request: EC50 | item: COc1ccc(C2CNC(=O)C2)cc1OC1CCCC1 (stereo not shown)
Reply: 692

###

target: serotonin 2B receptor (Arginine 388) (Homo sapiens, UniProt P41595); experiment: cell-based
Sequence (P41595 whole entry): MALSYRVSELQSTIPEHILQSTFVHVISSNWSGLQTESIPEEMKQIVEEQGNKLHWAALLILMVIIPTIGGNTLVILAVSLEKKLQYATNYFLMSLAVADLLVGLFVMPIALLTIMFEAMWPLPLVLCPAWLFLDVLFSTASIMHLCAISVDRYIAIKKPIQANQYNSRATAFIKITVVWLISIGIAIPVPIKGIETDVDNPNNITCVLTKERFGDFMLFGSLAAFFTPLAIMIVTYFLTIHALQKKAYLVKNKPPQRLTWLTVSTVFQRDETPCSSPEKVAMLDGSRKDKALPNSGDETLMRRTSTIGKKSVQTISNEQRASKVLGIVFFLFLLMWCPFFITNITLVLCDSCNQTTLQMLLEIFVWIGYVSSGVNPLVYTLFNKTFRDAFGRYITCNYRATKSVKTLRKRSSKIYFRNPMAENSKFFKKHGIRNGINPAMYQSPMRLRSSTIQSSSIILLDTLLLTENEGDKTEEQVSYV
measured_quantity: EC50 (nM)
Your answer is read as nM, so omit the unit and give the number.

Query: Field request: EC50 | item: CN1C[C@H](C(=O)N[C@]2(C)O[C@@]3(O)[C@@H]4CCCN4C(=O)[C@H](Cc4ccccc4)N3C2=O)C[C@@H]2c3cccc4[nH]cc(c34)C[C@H]21 [Dihydroergotamine, dihydroergotamine]
Reply: 0.0933
